The reported measurements were obtained from patent US8835442B2.

# Tested System: human A2AR (Homo sapiens)
# Sequence (P29274 whole entry): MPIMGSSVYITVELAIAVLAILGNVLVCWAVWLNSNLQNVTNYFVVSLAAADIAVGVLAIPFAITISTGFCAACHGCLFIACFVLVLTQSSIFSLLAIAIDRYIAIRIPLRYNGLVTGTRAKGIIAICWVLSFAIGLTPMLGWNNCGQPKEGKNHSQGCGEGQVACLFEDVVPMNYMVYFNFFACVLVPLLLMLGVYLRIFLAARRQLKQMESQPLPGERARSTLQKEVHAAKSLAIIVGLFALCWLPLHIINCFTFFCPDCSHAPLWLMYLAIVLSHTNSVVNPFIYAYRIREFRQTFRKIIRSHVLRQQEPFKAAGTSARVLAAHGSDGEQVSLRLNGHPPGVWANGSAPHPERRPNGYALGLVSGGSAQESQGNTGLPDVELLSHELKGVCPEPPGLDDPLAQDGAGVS
# Experiment Notes: Competitive radioligand binding assay, [3H] ZM 241385, membranes of HEK 293 cells stably expressing human A2AR
# Setup Conditions: selectivity: Ki hA1 / Ki hA2A
satisfied if hA1/hA2A ratio is below 0.2. not satisfied if not; exact matches included in not satisfied.

In the record for `N=c1c2sc(=S)n(-c3ccc(I)cc3)c2ncn1NC(N)=O` , is hA1/hA2A ratio less than 0.2? not satisfied

Now consider `N=c1c2sc(=S)n(Cc3ccccc3)c2ncn1NC(N)=O` . not satisfied

Now consider `CCCCn1c(=S)sc2c(=N)n(NC(=O)c3ccco3)cnc21` . satisfied

Now consider `N=c1c2sc(=S)n(-c3ccccc3)c2ncn1NC(N)=O` . not satisfied

Now consider `CCn1c(=S)sc2c(=N)n(NC(N)=O)cnc21` . satisfied
